Measured IC50, listed per entry.
tgt: human heparanase (HPSE) (Homo sapiens)
Construct: endogenous in cells
Sequence (Q9Y251 36-543): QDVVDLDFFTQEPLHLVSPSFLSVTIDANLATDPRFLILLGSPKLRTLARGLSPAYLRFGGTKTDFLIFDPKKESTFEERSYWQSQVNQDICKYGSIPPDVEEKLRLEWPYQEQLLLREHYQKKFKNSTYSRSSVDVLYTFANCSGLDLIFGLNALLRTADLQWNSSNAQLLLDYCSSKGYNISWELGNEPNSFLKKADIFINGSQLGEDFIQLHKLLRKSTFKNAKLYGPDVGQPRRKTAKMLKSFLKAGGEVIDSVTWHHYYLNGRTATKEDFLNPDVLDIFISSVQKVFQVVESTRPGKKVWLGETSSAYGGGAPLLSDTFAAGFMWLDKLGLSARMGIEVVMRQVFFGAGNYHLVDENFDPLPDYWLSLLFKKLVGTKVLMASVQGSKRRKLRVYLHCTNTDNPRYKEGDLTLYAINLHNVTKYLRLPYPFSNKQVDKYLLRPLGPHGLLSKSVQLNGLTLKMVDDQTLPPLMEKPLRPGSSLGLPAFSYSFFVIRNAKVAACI
testDetails: Competitive activity-based protein profiling (cABPP) of HPSE in platelet lysate
condition: cABPP with ABP VB-A69 100 nM, pH 5.0, 1 h preincubation at 37°C
measuredEndpoint: IC50

>  <compound>
O=C(O)[C@H]1CNCC(O)(O)[C@@H]1O [compound 9]

>  <measuredEndpoint>
IC50

>  <result>
200 µM

$$$$
>  <compound>
O=C(O)[C@H]1CNC[C@@H](O)[C@H]1O [compound 10, galacturonic acid isofagomine]

>  <measuredEndpoint>
IC50

>  <result>
8 µM

$$$$
>  <compound>
O=C(O)[C@H]1CNCC(O)(O)[C@H]1O [compound 8]

>  <measuredEndpoint>
IC50

>  <result>
27 µM

$$$$
>  <compound>
O=C(O)[C@H]1CNC[C@@H](O)[C@@H]1O [compound 11, glucuronic acid isofagomine]

>  <measuredEndpoint>
IC50

>  <result>
80 µM

$$$$

====

tgt: human β-glucuronidase (HsGUSB) (Homo sapiens)
Construct: endogenous in cells
Sequence (P08236 23-651): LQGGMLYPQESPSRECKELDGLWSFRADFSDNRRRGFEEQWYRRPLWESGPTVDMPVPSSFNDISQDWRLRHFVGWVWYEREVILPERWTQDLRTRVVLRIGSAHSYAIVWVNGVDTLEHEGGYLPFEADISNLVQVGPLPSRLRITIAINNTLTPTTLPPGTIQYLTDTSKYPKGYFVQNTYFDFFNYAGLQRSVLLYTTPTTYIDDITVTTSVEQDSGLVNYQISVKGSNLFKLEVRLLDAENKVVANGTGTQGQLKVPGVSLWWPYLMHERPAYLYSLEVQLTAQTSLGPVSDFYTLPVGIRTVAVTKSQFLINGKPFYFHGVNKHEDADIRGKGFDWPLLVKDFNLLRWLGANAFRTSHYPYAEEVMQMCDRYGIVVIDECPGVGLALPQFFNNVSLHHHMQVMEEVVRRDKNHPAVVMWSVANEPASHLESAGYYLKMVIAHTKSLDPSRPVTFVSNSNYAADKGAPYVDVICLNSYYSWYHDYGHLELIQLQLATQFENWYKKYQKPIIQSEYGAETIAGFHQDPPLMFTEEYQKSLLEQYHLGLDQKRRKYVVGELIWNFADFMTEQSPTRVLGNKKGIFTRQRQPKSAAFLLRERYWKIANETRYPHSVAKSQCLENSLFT
testDetails: Competitive activity-based protein profiling (cABPP) of GUSB in platelet lysate
condition: cABPP with ABP VB-A69 100 nM, pH 5.0, 1 h preincubation at 37°C
Measured IC50, listed per entry.
measuredEndpoint: IC50 (nM)

>  <structureAsSmiles>
O=C(O)[C@H]1CNCC(O)(O)[C@@H]1O

>  <unitLabel>
nM

>  <numericValue>
1700

$$$$
>  <structureAsSmiles>
O=C(O)[C@H]1CNC[C@@H](O)[C@H]1O

>  <unitLabel>
nM

>  <numericValue>
700

$$$$
>  <structureAsSmiles>
O=C(O)[C@H]1CNC[C@@H](O)[C@@H]1O

>  <unitLabel>
nM

>  <numericValue>
600

$$$$
>  <structureAsSmiles>
O=C(O)[C@H]1CNCC(O)(O)[C@H]1O

>  <unitLabel>
nM

>  <numericValue>
4000

$$$$

====

Measured Ki, listed per entry.
tgt: UniProt:C1F2K5
Sequence (C1F2K5 1-475): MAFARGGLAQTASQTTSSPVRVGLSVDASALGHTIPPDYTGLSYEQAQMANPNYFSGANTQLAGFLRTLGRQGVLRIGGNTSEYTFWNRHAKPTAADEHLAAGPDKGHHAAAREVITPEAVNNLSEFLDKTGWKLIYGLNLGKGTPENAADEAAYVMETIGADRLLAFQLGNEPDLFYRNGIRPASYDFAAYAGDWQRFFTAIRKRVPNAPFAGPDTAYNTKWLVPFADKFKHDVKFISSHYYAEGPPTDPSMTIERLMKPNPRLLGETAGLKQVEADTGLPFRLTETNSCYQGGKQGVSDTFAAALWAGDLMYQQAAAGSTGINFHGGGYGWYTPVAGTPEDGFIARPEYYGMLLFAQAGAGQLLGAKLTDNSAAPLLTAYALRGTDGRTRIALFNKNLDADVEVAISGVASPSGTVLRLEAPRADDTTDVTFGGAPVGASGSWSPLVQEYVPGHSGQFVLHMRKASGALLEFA
testDetails: Inhibition of AcGH79 hydrolysis of 4-methylumbelliferyl glucuronide (MU-GlcUA)
Type: biochemical
condition: fluorogenic substrate MU-GlcUA, McIllvane buffer pH 5.0, competitive inhibition model; read-out: AcGH79 Ki
measuredEndpoint: Ki (nM)

>  <compound>
O=C(O)[C@H]1CNC[C@@H](O)[C@H]1O [compound 10, galacturonic acid isofagomine]

>  <unitLabel>
nM

>  <numericValue>
1500

$$$$
>  <compound>
O=C(O)[C@H]1CNCC(O)(O)[C@H]1O [compound 8]

>  <unitLabel>
nM

>  <numericValue>
5800

$$$$
>  <compound>
O=C(O)[C@H]1CNC[C@@H](O)[C@@H]1O [compound 11, glucuronic acid isofagomine]

>  <unitLabel>
nM

>  <numericValue>
22

$$$$

====

tgt: E. coli β-glucuronidase (EcGusB) (Escherichia coli, UniProt P05804)
Sequence (P05804 whole entry): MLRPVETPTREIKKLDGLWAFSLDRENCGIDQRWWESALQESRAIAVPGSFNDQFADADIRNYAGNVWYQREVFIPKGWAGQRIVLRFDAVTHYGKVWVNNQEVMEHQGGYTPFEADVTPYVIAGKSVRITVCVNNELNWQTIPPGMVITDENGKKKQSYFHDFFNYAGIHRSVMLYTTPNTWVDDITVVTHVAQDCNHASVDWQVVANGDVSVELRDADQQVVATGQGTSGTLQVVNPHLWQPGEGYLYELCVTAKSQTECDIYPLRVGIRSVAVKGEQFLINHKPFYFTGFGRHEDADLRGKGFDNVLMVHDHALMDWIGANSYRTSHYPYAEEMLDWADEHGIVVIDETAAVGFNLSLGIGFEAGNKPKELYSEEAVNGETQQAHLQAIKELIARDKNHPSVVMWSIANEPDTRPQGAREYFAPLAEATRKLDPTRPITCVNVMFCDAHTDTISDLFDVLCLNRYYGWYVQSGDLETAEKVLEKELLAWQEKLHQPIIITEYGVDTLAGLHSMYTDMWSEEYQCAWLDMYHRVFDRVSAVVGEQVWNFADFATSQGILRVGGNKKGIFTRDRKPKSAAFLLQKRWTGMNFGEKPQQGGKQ

>  <structureAsSmiles>
O=C(O)[C@H]1CNCC(O)(O)[C@@H]1O

>  <Ki>
28 µM

$$$$
>  <structureAsSmiles>
O=C(O)[C@H]1CNCC(O)(O)[C@H]1O

>  <Ki>
137 µM

$$$$
>  <structureAsSmiles>
O=C(O)[C@H]1CNC[C@@H](O)[C@H]1O

>  <Ki>
23 µM

$$$$
>  <structureAsSmiles>
O=C(O)[C@H]1CNC[C@@H](O)[C@@H]1O

>  <Ki>
1.5 µM

$$$$
